Dear all, this message contains IC50 results, target or system Matrix metalloproteinase-9 (Homo sapiens).
quantity: IC50 (nM)

P. C[C@]1(O)C[C@@H](c2ccc3cc(C(=O)N4CCCc5cnccc5C4)[nH]c3c2)C1
Q. CC(C)(O)c1ccc2cc(C(=O)N3CCCc4cnccc4C3)[nH]c2c1
Prompt line: # return whichever of P and Q has the smaller IC50 Give the chosen item's label as your response.
Response line: P
(P: 160 nM, Q: 580 nM)

A. O=C(c1cc2ccc(C3CCC3)cc2[nH]1)N1CCCc2cnccc2C1
B. CC(C)(O)c1ccc2cc(C(=O)N3CCCc4cnc(N)c(F)c4C3)[nH]c2c1
Prompt line: Endpoint returns whichever of A and B has the numerically higher IC50. Give the chosen item's label as your response.
Response line: A
(A: 120 nM, B: 44 nM)

====

# protocol: Solubility of compound
# Format: physicochemical
quantity: solubility (µg/mL)

Check out these entries, answers already filled in.
| smilesInput | val |
| --- | --- |
| O=C(c1cc2ccc(C3CC3)cc2[nH]1)N1CCCc2cnccc2C1 | 8.6 |
| O=C(c1cc2ccc(C3CCC3)cc2[nH]1)N1CCCc2cnccc2C1 | 0.4 |
| CC(C)(C)c1ccc2cc(C(=O)N3CCCc4cnccc4C3)[nH]c2c1 | 1.3 |

a. CCc1ccc2cc(C(=O)N3CCCc4cnccc4C3)[nH]c2c1
b. C[C@]1(O)C[C@@H](c2ccc3cc(C(=O)N4CCCc5cnccc5C4)[nH]c3c2)C1
Prompt line: # return whichever of a and b has the smaller solubility Give the chosen item's label as your response.
Response line: a
(a: 0.8 µg/mL, b: 3 µg/mL)
